Test system: Vero
Assay: Cytotoxicity against African green monkey Vero cells assessed as reduction in cell viability by MTT assay
Assay type: cell-based
Conditions: Chlorocebus sabaeus
Recorded Endpoint: pIC50
Interpret pIC50 as the negative base-10 log of the concentration measured in mol/L.

# input compound: O=C(Nc1ccccc1)c1ccc(=O)n(Cc2ccc(F)cc2)c1 ; wanted: its pIC50
3.51

# input compound: COc1ccc(NC(=O)c2ccnc(N(C)Cc3ccc(F)cc3)n2)cc1 ; wanted: its pIC50
3.56

# input compound: CN(CC1CCCCC1)c1cc(C(=O)Nc2ccccc2)ncn1 ; wanted: its pIC50
3.75

# input compound: CN(Cc1ccc(F)cc1)c1cncc(C(=O)Nc2ccc(F)cc2)n1 ; wanted: its pIC50
3.55

# input compound: CN1CCN(c2ccc(NC(=O)c3cc(N(C)Cc4ccc(F)cc4)ncn3)cn2)CC1 ; wanted: its pIC50
3.90

# input compound: CN(Cc1ccc(Cl)cc1)c1cc(C(=O)Nc2ccncc2)ncn1 ; wanted: its pIC50
3.55

# input compound: CN(Cc1ccc(Cl)cc1)c1cc(C(=O)Nc2ccccc2)ncn1 ; wanted: its pIC50
3.68

# input compound: CN(Cc1ccc(C(F)(F)F)nc1)c1cc(C(=O)Nc2ccc(N3CCOCC3)cn2)ncn1 ; wanted: its pIC50
3.68

# input compound: CN(Cc1ccc(F)cc1)c1cc(C(=O)Nc2nncs2)ncn1 ; wanted: its pIC50
4.66

---

Assay: Kinetic solubility of the compound in pH 7.4 solution at 10 to 220 uM after 2 hrs by shake flask method
Assay type: physicochemical
Settings: buffer, pH 7.4, 2 h, 220 µM
So I've got a bunch of compounds here, and I need their Kinetic_solubility values.
Field: numeric (µM). Do not append units.

# input compound: CN(Cc1ccc(C(F)(F)F)cc1)c1cc(C(=O)NC2CCCCC2)ncn1 ; wanted: its Kinetic_solubility
5

# input compound: COc1ccc(NC(=O)c2cc(N(C)Cc3ccc(F)cc3)ncn2)cc1 ; wanted: its Kinetic_solubility
62

# input compound: COc1ccc(NC(=O)c2cc(N(C)Cc3ccc(Cl)cc3)nc(NC3CC3)n2)cc1 ; wanted: its Kinetic_solubility
5

# input compound: CC(C)NC(=O)c1cc(N(C)Cc2ccc(C(F)(F)F)cc2)ncn1 ; wanted: its Kinetic_solubility
13

# input compound: CN(Cc1ccc(F)cc1)c1cc(C(=O)Nc2ccn(C)n2)ncn1 ; wanted: its Kinetic_solubility
90

# input compound: CN1CCN(c2cccc(NC(=O)c3cc(N(C)Cc4ccc(F)cc4)ncn3)c2)CC1 ; wanted: its Kinetic_solubility
74

# input compound: CN(Cc1ccc(C(F)(F)F)nc1)c1cc(C(=O)Nc2nncs2)ncn1 ; wanted: its Kinetic_solubility
191

# input compound: CN1CCN(c2ccc(NC(=O)c3cc(N(C)Cc4ccc(F)cc4)ncn3)cn2)CC1 ; wanted: its Kinetic_solubility
150

# input compound: CN1CCN(c2ccc(NC(=O)c3cc(N(C)Cc4ccc(C(F)(F)F)nc4)ncn3)cc2)CC1 ; wanted: its Kinetic_solubility
165

# input compound: CN(Cc1ccc(F)cc1)c1cc(NC(=O)c2ccccc2)ncn1 ; wanted: its Kinetic_solubility
5

---

So I've got a bunch of compounds here, and I need their MIC99 values.
Test system: Mycobacterium tuberculosis
Assay: Antibacterial activity against Mycobacterium tuberculosis H37RvMA grown in 7H9/ADC medium measured 7 to 14 days post inoculation by broth microdilution method
Format: functional
Field: numeric (µM). Do not append units.

# input compound: CN(Cc1ccccc1)c1cc(C(=O)Nc2ccccc2)ncn1 ; wanted: its MIC99
20

# input compound: CN(CCc1ccccc1)c1cc(C(=O)Nc2ccccc2)ncn1 ; wanted: its MIC99
80

# input compound: CN(Cc1ccc(F)cc1)c1cc(C(=O)Nc2ccccc2)ncn1 ; wanted: its MIC99
6.25

# input compound: COc1ccc(NC(=O)c2cc(N(C)Cc3cccc(F)c3)ncn2)cc1 ; wanted: its MIC99
37

# input compound: CC(=O)N1CCN(c2ccc(NC(=O)c3cc(N(C)Cc4ccc(C(F)(F)F)nc4)ncn3)cc2)CC1 ; wanted: its MIC99
4.7

# input compound: COCCOc1ccc(NC(=O)c2cc(N(C)Cc3ccc(F)cc3)ncn2)cc1 ; wanted: its MIC99
2.3

# input compound: CN1CCN(c2ccc(NC(=O)c3cc(N(C)Cc4ccc(C(F)(F)F)nc4)ncn3)cc2)CC1 ; wanted: its MIC99
12.5

# input compound: CN(Cc1ccc(F)cc1)c1cc(C(Nc2ccc(F)cc2)C(F)(F)F)ncn1 (configuration not stated) ; wanted: its MIC99
37

# input compound: COc1ccc(NC(=O)c2cc(N(C)Cc3ccccc3)ncn2)cc1 ; wanted: its MIC99
20

---

Assay: Kinetic solubility of the compound in fasted-state simulated intestinal fluid at 10 to 220 uM at pH 6.5 after 2 hrs by shake flask method
Assay type: physicochemical
Conditions: read-out: Kinetic_solubility
Recorded Endpoint: solubility kinetic at 2 h (µM)
Field: numeric (µM). Do not append units.

# input molecule: CN(Cc1ccc(C(F)(F)F)nc1)c1cc(C(=O)Nc2nncs2)ncn1 ; wanted: its solubility kinetic at 2 h
195

# input molecule: CN1CCN(c2ccc(NC(=O)c3cc(N(C)Cc4ccc(C(F)(F)F)cc4)ncn3)cc2)CC1 ; wanted: its solubility kinetic at 2 h
150

# input molecule: CN(Cc1ccc(C(F)(F)F)cc1)c1cc(C(=O)Nc2ccccc2)ncn1 ; wanted: its solubility kinetic at 2 h
5

---

Test: Kinetic solubility of the compound in pH 7.4 solution at 10 to 220 uM after 2 hrs by shake flask method
Type: physicochemical
Conditions: buffer, pH 7.4, 2 h, 220 µM
Kinetic_solubility strictly under 100 µM means fulfilled; at 100 µM or over means not fulfilled.

Does this compound meet the criterion Kinetic_solubility < 100 µM? CN1CCN(c2ccc(NC(=O)c3cc(N(C)Cc4ccc(C(F)(F)F)cc4)ncn3)cc2)CC1
fulfilled

Does this compound meet the criterion Kinetic_solubility < 100 µM? CN(Cc1ccc(Cl)cc1)c1cc(C(=O)Nc2ccncc2)ncn1
fulfilled

Does this compound meet the criterion Kinetic_solubility < 100 µM? O=C(Nc1ccccc1)c1ccc(=O)n(Cc2ccc(F)cc2)c1
not fulfilled

Does this compound meet the criterion Kinetic_solubility < 100 µM? CN(Cc1ccc(C(F)(F)F)cc1)c1cc(C(=O)Nc2ccccc2)ncn1
fulfilled

Does this compound meet the criterion Kinetic_solubility < 100 µM? CN(c1ccccc1)c1cc(C(=O)Nc2ccccc2)ncn1
fulfilled

Does this compound meet the criterion Kinetic_solubility < 100 µM? CN(Cc1ccccc1Cl)c1cc(C(=O)Nc2ccccc2)ncn1
fulfilled

Does this compound meet the criterion Kinetic_solubility < 100 µM? CCN(Cc1ccc(Cl)cc1)c1cc(C(=O)Nc2ccccc2)ncn1
fulfilled

Does this compound meet the criterion Kinetic_solubility < 100 µM? CN(Cc1ccc(F)cc1)c1cc(C(=O)Nc2nncs2)ncn1
not fulfilled

Does this compound meet the criterion Kinetic_solubility < 100 µM? CN(Cc1cccnc1)c1cc(C(=O)Nc2ccccc2)ncn1
not fulfilled

Does this compound meet the criterion Kinetic_solubility < 100 µM? CN(Cc1ccc(S(C)(=O)=O)cc1)c1cc(C(=O)Nc2ccccc2)ncn1
fulfilled

Does this compound meet the criterion Kinetic_solubility < 100 µM? CN(Cc1ccc(C(F)(F)F)cc1)c1cc(C(=O)Nc2ncn(C)n2)ncn1
not fulfilled

---

Test system: Mus musculus
Assay: Oral bioavailability in C57/BL6 mouse at 20 mg/kg measured up to 24 hrs post dose by LC-MS/MS analysis
Assay type: ADME, organism-based
Conditions: in vivo
F strictly under 30% means 1; at 30% or over means 0.

Does this compound meet the criterion F < 30%? CN(Cc1ccc(C(F)(F)F)nc1)c1cc(C(=O)Nc2nncs2)ncn1
0

Does this compound meet the criterion F < 30%? CN(Cc1ccc(F)cc1)c1cc(C(=O)Nc2nncs2)ncn1
1

Does this compound meet the criterion F < 30%? CN(Cc1ccc(C(F)(F)F)nc1)c1cc(C(=O)Nc2ccccc2)ncn1
0

Does this compound meet the criterion F < 30%? CN(Cc1ccc(C(F)(F)F)cc1)c1cc(C(=O)Nc2ccccc2)ncn1
1

Does this compound meet the criterion F < 30%? CN1CCN(c2ccc(NC(=O)c3cc(N(C)Cc4ccc(C(F)(F)F)cc4)ncn3)cc2)CC1
1

---

So I've got a bunch of compounds here, and I need their betat1/2(app) values.
System: Mus musculus
Test: Apparent elimination half life in C57/BL6 mouse at 20 mg/kg, po measured up to 24 hrs post dose by LC-MS/MS analysis
Format: ADME, organism-based
Conditions: in vivo
Answer format: value, then unit.

# input compound: CN(Cc1ccc(F)cc1)c1cc(C(=O)Nc2nncs2)ncn1 ; wanted: its betat1/2(app)
4.4 h

# input compound: CN(Cc1ccc(C(F)(F)F)nc1)c1cc(C(=O)Nc2nncs2)ncn1 ; wanted: its betat1/2(app)
3 h

# input compound: CN(Cc1ccc(C(F)(F)F)nc1)c1cc(C(=O)Nc2ccccc2)ncn1 ; wanted: its betat1/2(app)
7.2 h

# input compound: CN(Cc1ccc(C(F)(F)F)cc1)c1cc(C(=O)Nc2ccccc2)ncn1 ; wanted: its betat1/2(app)
8.7 h

# input compound: CN1CCN(c2ccc(NC(=O)c3cc(N(C)Cc4ccc(C(F)(F)F)cc4)ncn3)cc2)CC1 ; wanted: its betat1/2(app)
15.8 h
